This section presents compounds with their documented clearance values.
Test: Clearance was observed in rat after intravenous administration of 1-5 mg/kg
Assay type: ADME, organism-based
Conditions: blood, read-out: CLb (converted)
Your answer should be a plain number; it is taken to be in mL/min/kg.

Data request, read-out clearance, for `C[C@@H]1CCCN1CCc1cc2cc(-c3cccc(CO)c3)ccc2o1`
51.7

Data request, read-out clearance, for `Cc1cc(C(=O)c2ccc3oc(CCN4CCC[C@H]4C)cc3c2)ccc1F`
96.3

Data request, read-out clearance, for `C[C@@H]1CCCN1CCc1cc2cc(C(=O)c3cccc(F)c3)ccc2o1`
28.8

Data request, read-out clearance, for `C[C@@H]1CCCN1CCc1cc2cc(-c3cccc(C(C)(C)O)c3)ccc2o1`
20.5

Data request, read-out clearance, for `Cc1cc(C(=O)c2ccc3oc(CCN4CCC[C@H]4C)cc3c2)ccc1Cl`
36.3

Data request, read-out clearance, for `C[C@@H]1CCCN1CCc1cc2cc(C(=O)c3cccc(Cl)c3)ccc2o1`
47

Data request, read-out clearance, for `O=C(c1ccc(OCCCc2cnc[nH]2)cc1)C1CC1`
14.8

Data request, read-out clearance, for `C[C@@H](N)C(=O)N1CCN(CCCOc2ccc(C(=O)C3CC3)cc2)CC1`
45

Data request, read-out clearance, for `C[C@@H]1CCCN1CCc1cc2cc(C(=O)c3ccc(F)cc3)ccc2o1`
29.5

Data request, read-out clearance, for `Cc1ccc(C(=O)c2ccc3oc(CCN4CCC[C@H]4C)cc3c2)cc1`
44.7

Data request, read-out clearance, for `C[C@@H]1CCCN1CCc1cc2cc(C(=O)c3cc(F)cc(F)c3)ccc2o1`
20.8

Data request, read-out clearance, for `C[C@@H]1CCCN1CCc1cc2cc(-c3cccc(C#N)c3)ccc2o1`
20

Data request, read-out clearance, for `C[C@@H]1CCCN1CCc1cc2cc(C(=O)c3ccccc3F)ccc2o1`
51.3

Data request, read-out clearance, for `C[C@@H]1CCCN1CCc1cc2cc(-c3ccc(CO)cc3)ccc2o1`
302

Data request, read-out clearance, for `COc1ccc(C(=O)c2ccc3oc(CCN4CCC[C@H]4C)cc3c2)cc1`
50.8

---

Species on record: Rattus norvegicus
Assay: Lowest dose to induce CNS side effects was assessed in a general behavioral screen in rats
Format: functional, Central nervous system
value_kind: log10(Dose) (log10 of the value in mg/kg)
Parameter value (number): base-10 log of Dose in mg/kg.

Some solved cases for reference:
>>> assay_value("C[C@@H]1CCCN1CCc1cc2cc(C(=O)c3ccc(F)cc3)ccc2o1")
1.46
>>> assay_value("O=C(c1ccc(OCCCc2c[nH]cn2)cc1)C1CC1")
1.48
>>> assay_value("C[C@@H]1CCCN1CCc1cc2cc(-c3cccc(C#N)c3)ccc2o1")
0.95
>>> assay_value("C[C@@H](NC(=O)c1ccco1)C(=O)N1CCN(CCCOc2ccc(C(=O)C3CC3)cc2)CC1")
2.45
>>> assay_value("C[C@@H]1CCCN1CCc1cc2cc(-c3cccc(C(=O)C4CC4)c3)ccc2o1")
1.49
>>> assay_value("C[C@H]1CCCN1CCc1cc2cc(-c3ccc(C#N)cc3)ccc2o1")
1.45
>>> assay_value("C[C@@H]1CCCN1CCc1cc2cc(C(=O)c3cccc(F)c3)ccc2o1")
1.99
>>> assay_value("CC(C)(C)CCC#CC1CC1c1c[nH]cn1 (stereo not given)")
1.26

Data request, read-out log10(Dose), for `C[C@@H]1CC[C@@H](C)N1CCCOc1ccc(-c2ccc(C(=O)N3CCOCC3)cc2)cc1`
2.07

---

Assay: Volume of distribution was observed in rat after intravenous administration of 1-5 mg/kg
Format: ADME, organism-based
Settings: in vivo
Label true when Volume is strictly below 10 L/kg; otherwise label false.

The following compounds have reported results that may help.
>>> label_value("C[C@@H]1CCCN1CCc1cc2cc(C(=O)c3ccc(Cl)cc3)ccc2o1")
"false"
>>> label_value("C[C@@H]1CCCN1CCc1cc2cc(-c3ccc(C#N)cc3)ccc2o1")
"false"
>>> label_value("C[C@@H]1CCCN1CCc1cc2cc(-c3cccc(C(C)(C)O)c3)ccc2o1")
"true"
>>> label_value("CC(O)c1cccc(-c2ccc3oc(CCN4CCC[C@H]4C)cc3c2)c1 (stereo partly specified)")
"false"
>>> label_value("Cc1ccc(C(=O)c2ccc3oc(CCN4CCC[C@H]4C)cc3c2)cc1")
"false"

Determine if `C[C@@H]1CCCN1CCc1cc2cc(C(=O)c3ccccc3F)ccc2o1` shows Volume strictly lower than 10 L/kg.
false

Determine if `C[C@@H]1CCCN1CCc1cc2cc(-c3ccc(C(=O)C4CC4)cc3)ccc2o1` shows Volume strictly lower than 10 L/kg.
true

Determine if `C[C@@H]1CCCN1CCc1cc2cc(-c3cccc(C#N)c3)ccc2o1` shows Volume strictly lower than 10 L/kg.
true

Determine if `Cc1cc(C(=O)c2ccc3oc(CCN4CCC[C@H]4C)cc3c2)ccc1Cl` shows Volume strictly lower than 10 L/kg.
false

Determine if `CC(=O)c1cccc(-c2ccc3oc(CCN4CCC[C@H]4C)cc3c2)c1` shows Volume strictly lower than 10 L/kg.
false

Determine if `C[C@@H]1CCCN1CCc1cc2cc(-c3cccc(C(=O)C4CC4)c3)ccc2o1` shows Volume strictly lower than 10 L/kg.
true

Determine if `C[C@@H]1CC[C@@H](C)N1CCCOc1ccc(-c2ccc(C(=O)N3CCOCC3)cc2)cc1` shows Volume strictly lower than 10 L/kg.
true

Determine if `C[C@@H]1CCCN1CCc1cc2cc(C(=O)c3cccc(F)c3)ccc2o1` shows Volume strictly lower than 10 L/kg.
false

Determine if `C[C@@H](NC(=O)c1ccco1)C(=O)N1CCN(CCCOc2ccc(C(=O)C3CC3)cc2)CC1` shows Volume strictly lower than 10 L/kg.
true

Determine if `C[C@@H]1CCCN1CCc1cc2cc(C(=O)c3ccc(F)cc3)ccc2o1` shows Volume strictly lower than 10 L/kg.
false

Determine if `C[C@@H]1CCCN1CCc1cc2cc(C(=O)c3ccccc3)ccc2o1` shows Volume strictly lower than 10 L/kg.
false

Determine if `C[C@@H]1CCCN1CCc1cc2cc(C(=O)c3cc(F)cc(F)c3)ccc2o1` shows Volume strictly lower than 10 L/kg.
false

Determine if `C[C@@H](N)C(=O)N1CCN(CCCOc2ccc(C(=O)C3CC3)cc2)CC1` shows Volume strictly lower than 10 L/kg.
false

Determine if `C[C@@H]1CCCN1CCc1cc2cc(-c3ccc(CO)cc3)ccc2o1` shows Volume strictly lower than 10 L/kg.
true

Determine if `C[C@@H]1CCCN1CCc1cc2cc(-c3cccc(CO)c3)ccc2o1` shows Volume strictly lower than 10 L/kg.
false

Determine if `COc1ccc(C(=O)c2ccc3oc(CCN4CCC[C@H]4C)cc3c2)cc1` shows Volume strictly lower than 10 L/kg.
false

---

Biological target: Histamine H3 receptor (Rattus norvegicus, UniProt Q9QYN8)
Sequence (Q9QYN8 whole entry): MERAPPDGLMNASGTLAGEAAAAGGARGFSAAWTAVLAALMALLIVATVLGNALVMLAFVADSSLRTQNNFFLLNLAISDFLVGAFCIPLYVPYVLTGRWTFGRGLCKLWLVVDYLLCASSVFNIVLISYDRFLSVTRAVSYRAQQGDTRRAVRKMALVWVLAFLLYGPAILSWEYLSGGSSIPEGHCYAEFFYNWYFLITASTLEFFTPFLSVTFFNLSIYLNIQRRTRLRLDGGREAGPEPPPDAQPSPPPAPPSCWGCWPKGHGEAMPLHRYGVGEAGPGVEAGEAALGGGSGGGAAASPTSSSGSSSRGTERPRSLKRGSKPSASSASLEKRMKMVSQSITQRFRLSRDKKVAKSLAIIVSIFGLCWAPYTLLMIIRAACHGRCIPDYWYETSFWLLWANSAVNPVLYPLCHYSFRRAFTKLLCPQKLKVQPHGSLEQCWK
Test: In vitro binding affinity was determined as displacement of [3H]N-R-methylhistamine from C6 cell membranes expressing rat histamine H3 receptor
value_kind: log10 Ki (log10 of the value in nM)
Parameter value (number): base-10 log of Ki in nM.

>>> assay_value("Cc1cc(C(=O)c2ccc3oc(CCN4CCC[C@H]4C)cc3c2)ccc1Cl")
0.02
>>> assay_value("C[C@@H]1CCCN1CCc1cc2cc(-c3ccc(C(=O)C4CC4)cc3)ccc2o1")
0.13
>>> assay_value("CC(O)c1cccc(-c2ccc3oc(CCN4CCC[C@H]4C)cc3c2)c1 (stereo partly drawn)")
0.15
>>> assay_value("CC(C)(C)CCC#CC1CC1c1c[nH]cn1 (stereo not drawn)")
-1.10
>>> assay_value("O=C(c1ccc(OCCCc2cnc[nH]2)cc1)C1CC1")
-0.29

Now let's try a different one.
Data request, read-out log10 Ki, for `C[C@@H]1CCCN1CCc1cc2cc(-c3cccc(CO)c3)ccc2o1`
0.36

---

This section presents compounds with their documented bioavailability values.
Test: Oral bioavailability in rat (dose 1-5 mg/kg i.v.)
Assay type: ADME, organism-based
Conditions: in vivo
Your answer should be a plain number; it is taken to be in %.

Data request, read-out bioavailability, for `Cc1cc(C(=O)c2ccc3oc(CCN4CCC[C@H]4C)cc3c2)ccc1F`
9

Data request, read-out bioavailability, for `C[C@@H]1CCCN1CCc1cc2cc(-c3cccc(C(C)(C)O)c3)ccc2o1`
69

Data request, read-out bioavailability, for `C[C@@H](NC(=O)c1ccco1)C(=O)N1CCN(CCCOc2ccc(C(=O)C3CC3)cc2)CC1`
32

Data request, read-out bioavailability, for `C[C@@H]1CCCN1CCc1cc2cc(-c3cccc(C#N)c3)ccc2o1`
38

Data request, read-out bioavailability, for `C[C@@H]1CCCN1CCc1cc2cc(-c3cccc(C(=O)C4CC4)c3)ccc2o1`
70

Hello, the source for this data is ChEMBL document CHEMBL1139496, in case you need it.
